Value source: the RNAGym collection of RNA variant scans (doi:10.1021/acssynbio.7b00057)

B1: Pistol ribozyme (parent)
chain: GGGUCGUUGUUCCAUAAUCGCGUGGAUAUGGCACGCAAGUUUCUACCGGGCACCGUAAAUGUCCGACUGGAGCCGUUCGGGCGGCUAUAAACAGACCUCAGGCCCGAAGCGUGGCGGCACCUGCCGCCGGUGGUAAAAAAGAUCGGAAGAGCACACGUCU

Variants of: B1
protocolText: aptazyme ON/OFF ratio, guanine; higher = stronger switching; co-transcriptional cleavage with and without guanine
The entries below come with measured aptazyme ON/OFF ratio values attached.
Lab note: jot down the number only; don't add units.

{"variantAnnotation": "U8A U10G U11A C12G C13G", "aptazyme ON/OFF ratio": 1.51}
{"variantAnnotation": "U7G G9C U10G U11A C12U", "aptazyme ON/OFF ratio": 1.19}
{"variantAnnotation": "G9C C12G", "aptazyme ON/OFF ratio": 1.35}
{"variantAnnotation": "U7G U8A G9C U10C U11G C12G C13U", "aptazyme ON/OFF ratio": 1.02}
{"variantAnnotation": "U7A U8G G9U U11G C12G C13A", "aptazyme ON/OFF ratio": 1.22}
{"variantAnnotation": "U7G U8A G9C U10C U11C C13A", "aptazyme ON/OFF ratio": 1.03}
{"variantAnnotation": "U7C U8C G9C U10A U11G C12G C13U", "aptazyme ON/OFF ratio": 1.1}
{"variantAnnotation": "U7G U8G U10G U11C C12G C13U", "aptazyme ON/OFF ratio": 1.4}

Param item = U10C U11G C12U ; retrieve measured aptazyme ON/OFF ratio.
1.31

Record: U7G U10G U11A C12G C13U
1.1

Would you mind doing U7A U8G G9A U10G C12U C13G as well?
1.36

Then what about the variant U8G U10C U11C C12G C13A ?
1.1

Do the same for U7A U8G G9C U10C U11G C12A C13U please
1.06
